Source listed as PubChem BioAssay (NCI).

# System: IGROV1 ovarian
# assay info: NCI-60 one-dose screen, 48 h (100 = growth as untreated, 0 = no growth, -100 = all killed)
# condition label: 10 µM unless noted
The panel holds about 83,000 compounds, 20% with a hit somewhere; the sample as a whole holds those more often.
Entries and their measured growth follow.

{"compound": "C#Cc1nc(/C=C/C(=O)c2nccn2C)cs1", "target system": "IGROV1 ovarian", "reading unit": "%", "growth": -59.1}
{"compound": "CN(Cc1ccccc1)S(=O)(=O)/N=C1\\NC(=O)NC1=C(Cl)Cl", "target system": "IGROV1 ovarian", "reading unit": "%", "growth": 3.38}
{"compound": "N#Cc1cccc(/C(N)=N/C(N)=N/c2nc3ccccc3s2)c1", "target system": "IGROV1 ovarian", "reading unit": "%", "growth": 36.6}
{"compound": "COc1cc(-c2nn(C(C)(C)C)cc2-c2ccnc(NCCCNS(=O)(=O)c3ccc(F)cc3)n2)ccc1Cl", "target system": "IGROV1 ovarian", "reading unit": "%", "growth": 61.6}
{"compound": "Cc1ccc(-c2nn(-c3ccccc3)cc2/C=C/C(=O)c2ccc(NC(=O)CCCCCCC(=O)NO)cc2)cc1", "target system": "IGROV1 ovarian", "reading unit": "%", "growth": 69.1}
{"compound": "C=C=COc1cccc(/C(N)=N/C(N)=N/c2nc3ccccc3s2)c1", "target system": "IGROV1 ovarian", "reading unit": "%", "growth": 57.7}
{"compound": "Nc1nc(N)c2c(n1)NC(c1ccc(C(F)(F)F)cc1)CC(c1ccc(Nc3nc(NCCO)nc(N4CCOCC4)n3)cc1)=N2 (stereo unspecified)", "target system": "IGROV1 ovarian", "reading unit": "%", "growth": 72.6}
{"compound": "C=CC(=O)N1CC=C(c2cc3c(N[C@H](C)c4ccccc4)ncnc3[nH]2)CC1", "target system": "IGROV1 ovarian", "reading unit": "%", "growth": 6.95}
{"compound": "CCN(CC)c1cn(-c2ccc(S(N)(=O)=O)cc2)nn1", "target system": "IGROV1 ovarian", "reading unit": "%", "growth": 113}
{"compound": "Cc1cc(-c2ccc(Cl)cc2)n(Cc2nnc(SCC(=O)Nc3ccc(S(N)(=O)=O)cc3)n2-c2ccc([N+](=O)[O-])cc2)n1", "target system": "IGROV1 ovarian", "reading unit": "%", "growth": 96.9}
{"compound": "CCCCCCCn1cc2c(N[C@H](C)c3ccccc3)ncnc2n1", "target system": "IGROV1 ovarian", "reading unit": "%", "growth": 89.9}
{"compound": "Nc1ccccc1NC(=O)c1ccc(NC(=O)C/C=C/c2cccnc2)cn1", "target system": "IGROV1 ovarian", "reading unit": "%", "growth": 16.7}
{"compound": "CCCn1cnc2c(c1=N)C(c1ccc(OC)cc1)c1sc3c(C)cccc3c1O2 (stereo unspecified)", "target system": "IGROV1 ovarian", "reading unit": "%", "growth": 18.4}
{"compound": "Nc1ccccc1NC(=O)c1ccc(NC(=O)C/C=C/c2cccnc2)cc1", "target system": "IGROV1 ovarian", "reading unit": "%", "growth": 23.3}
{"compound": "COc1ccc(-n2c(/C=C3\\C(=O)Nc4ccccc43)ccc2CO)cc1", "target system": "IGROV1 ovarian", "reading unit": "%", "growth": 98.5}
{"compound": "NC(=O)c1cccc(-n2ccc3cc(NC(=O)Nc4ccc(N5CCOCC5)c(C(F)(F)F)c4)ccc32)n1", "target system": "IGROV1 ovarian", "reading unit": "%", "growth": 13.8}
{"compound": "CCN(CC)c1ccc(NC2=C(Cl)C(=O)c3nc(C)ccc3C2=O)cc1", "target system": "IGROV1 ovarian", "reading unit": "%", "growth": -52.2}
{"compound": "COc1ccc(-n2c(SCc3n[nH]c(=S)o3)nc3ccc(Cl)cc3c2=O)cc1", "target system": "IGROV1 ovarian", "reading unit": "%", "growth": 95.8}
{"compound": "CN(C)CCN(C)c1ccc2ncc(C#Cc3cncc(C(=O)Nc4ccc(CN5CCN(C)CC5)c(C(F)(F)F)c4)c3)n2n1", "target system": "IGROV1 ovarian", "reading unit": "%", "growth": 45.5}
{"compound": "COc1ccc(-c2nc3ccc(-c4nnc(SCC(=O)Nc5ccc(C(=O)/C=C/c6ccc(Cl)cc6)cc5)o4)cc3[nH]2)cc1", "target system": "IGROV1 ovarian", "reading unit": "%", "growth": 87.2}
{"compound": "COc1ccc(/C=C/C(=O)c2cccc(NC(=O)CSc3nc4ccccc4c(=O)n3-c3ccccc3)c2)cc1OC", "target system": "IGROV1 ovarian", "reading unit": "%", "growth": 105}
{"compound": "CC[C@@H](CO)Nc1ccc2ncc(C#Cc3cncc(C(=O)Nc4ccc(CN5CCN(C)CC5)c(C(F)(F)F)c4)c3)n2n1", "target system": "IGROV1 ovarian", "reading unit": "%", "growth": -25.4}
{"compound": "O=C1C(c2ccccc2)=C(N2CCc3ccccc32)OC1(Cl)Cl", "target system": "IGROV1 ovarian", "reading unit": "%", "growth": 43.5}
{"compound": "CC1(C)[C@@H](O)CC[C@]2(C)[C@H]3CC[C@@H]4[C@H]5[C@H](C(=O)/C=C\\c6ccccn6)CC[C@]5(O)CC[C@@]4(C)[C@]3(C)CC[C@@H]12", "target system": "IGROV1 ovarian", "reading unit": "%", "growth": 34.5}
{"compound": "COCCNc1ccc2ncc(C#Cc3cncc(C(=O)Nc4ccc(CN5CCN(C)CC5)c(C(F)(F)F)c4)c3)n2n1", "target system": "IGROV1 ovarian", "reading unit": "%", "growth": -12}
{"compound": "COc1cc(/C=C2\\C(=O)Nc3ccccc32)ccc1OCc1ccc(F)cc1", "target system": "IGROV1 ovarian", "reading unit": "%", "growth": 101}
{"compound": "CC1(C)NCCC[C@]2(C)[C@H]3C/C(=N\\O)C4[C@@H]5C[C@@](C)(CO)CC[C@]5(C)CC[C@@]4(C)[C@]3(C)CC[C@@H]12 (stereo partly specified)", "target system": "IGROV1 ovarian", "reading unit": "%", "growth": 96.5}
{"compound": "C=CCn1c(SCC(=O)Nc2ccc(C(=O)/C=C/c3ccc(Br)cc3)cc2)nnc1-c1c[nH]c2ccccc12", "target system": "IGROV1 ovarian", "reading unit": "%", "growth": 76.4}
{"compound": "O=S(=O)(NCCCNc1nccc(-c2[nH]c(-c3ccccc3)nc2-c2ccc(Cl)c(O)c2)n1)c1ccc(Br)cc1", "target system": "IGROV1 ovarian", "reading unit": "%", "growth": 36.8}
{"compound": "CC1(C)CC[C@]2(CN)CC[C@]3(C)C(=CC[C@@H]4[C@@]5(C)CCCNC(C)(C)[C@@H]5CC[C@]43C)[C@H]2C1", "target system": "IGROV1 ovarian", "reading unit": "%", "growth": 98.1}
{"compound": "COc1cc(OC)c(/C=C/S(=O)(=O)Cc2ccc(OC)c(NC(=O)CCC(=O)NO)c2)c(OC)c1", "target system": "IGROV1 ovarian", "reading unit": "%", "growth": 13.4}
{"compound": "O=C(O)c1cn(C2CC2)c2cc(N3CCN(C(=O)CN4C(=O)CSC4=O)CC3)c(F)cc2c1=O", "target system": "IGROV1 ovarian", "reading unit": "%", "growth": 82.6}
{"compound": "COc1ccc(NC(=O)CSc2nnc(-c3ccc4nc(-c5ccccc5)[nH]c4c3)o2)cc1", "target system": "IGROV1 ovarian", "reading unit": "%", "growth": 92.9}
{"compound": "NC(N)=Nc1ccc(Oc2cccc(Nc3ccc(Br)c(C(F)(F)F)c3)c2)cc1", "target system": "IGROV1 ovarian", "reading unit": "%", "growth": 0.582}
{"compound": "COc1ccc(COc2ccc(/C=C3\\C(=O)Nc4ccccc43)cc2OC)cc1", "target system": "IGROV1 ovarian", "reading unit": "%", "growth": 107}
{"compound": "N#Cc1c(-c2cccs2)cc(-c2cnccn2)nc1SCC(=O)c1ccc(F)cc1", "target system": "IGROV1 ovarian", "reading unit": "%", "growth": 78.1}

* * *

# System: HCT-15 colon
# assay info: NCI-60 one-dose screen, 48 h (100 = growth as untreated, 0 = no growth, -100 = all killed)
# condition label: 10 µM unless noted
Compounds without any hit were thinned out: in the full panel of roughly 83,000, 20% have a hit.
Reported growth values for a set of molecules

{"compound string": "Cc1ccc(C(=O)NN2C(=O)/C(=C/C=C/c3ccco3)SC2=S)cc1", "target system": "HCT-15 colon", "reading unit": "%", "growth": 91.6}
{"compound string": "N#Cc1cccc(/C(N)=N/C(N)=N/c2nc3ccccc3s2)c1", "target system": "HCT-15 colon", "reading unit": "%", "growth": 31.9}
{"compound string": "O=C(NCc1ncc[nH]1)c1ccc(-c2nc3ccc4[nH]ncc4c3c3c2CCCC3)cc1", "target system": "HCT-15 colon", "reading unit": "%", "growth": 48}
{"compound string": "c1cc(-c2nc3ccc4[nH]ncc4c3c3c2CCCC3)[nH]n1", "target system": "HCT-15 colon", "reading unit": "%", "growth": 34.8}
{"compound string": "O=C(O)c1cn(C2CC2)c2cc(N3CCN(C(=O)CN4C(=O)CSC4=O)CC3)c(F)cc2c1=O", "target system": "HCT-15 colon", "reading unit": "%", "growth": 112}
{"compound string": "Cc1[nH]c(C(=O)Nc2ccccc2OCc2cccc(C(=O)N3CCC[C@@H](N)C3)c2)c(Cl)c1Cl", "target system": "HCT-15 colon", "reading unit": "%", "growth": -78.6}
{"compound string": "COc1ccc(/C=C(/C)c2ccc3ccc(OC)cc3[o+]2)c(O)c1", "target system": "HCT-15 colon", "reading unit": "%", "growth": 22.5}
{"compound string": "CCCCCCCn1cc2c(NCCc3ccccc3)ncnc2n1", "target system": "HCT-15 colon", "reading unit": "%", "growth": 95.6}
{"compound string": "Cc1ccc(-c2nn(-c3ccccc3)cc2/C=C/C(=O)c2ccc(NC(=O)CCCCCCC(=O)NO)cc2)cc1", "target system": "HCT-15 colon", "reading unit": "%", "growth": 68}
{"compound string": "O=C(Nc1ccc(F)c(F)c1)c1cc(-c2ccc(F)cc2F)ccc1O", "target system": "HCT-15 colon", "reading unit": "%", "growth": 2.24}
